FYI, the data here is from patent US20250257130A1.

Molecular target: T1, cynomolgus ROR1 on CHO-K1-cynoROR1 cells (cynomolgus monkey, UniProt A0A2K5WTX7 30-937)
T1 construct: whole, on cells
Assay: flow cytometry, CHO-K1-cynoROR1 cells
Criterion: Max strictly less than 30000. Met: condition met. Not met: condition not met.

1. PR005347 (antibody, human IgG1, V domains shown, HCAb (heavy chain-only, human IgG1 Fc), no light chain) VH: EVQLVESGGGLVKPGGSLRLSCVTSGFTFSDYYMSWIRQAPGKGMEWISYISTTGSTKNYANSVKGRFTISRDNAKSSLYLQMNSLRAEDTAAYYCARVPPSNASWYEDFDYWGQGTLVTVSS : condition not met
2. PR005339 (antibody, human IgG1, V domains shown, HCAb (heavy chain-only, human IgG1 Fc), no light chain) VH: EVQLVESGGGLVKPGGSLKLSCAASGFTFSDYYMSWIRQAPGKGVEWISYISNNGSTIHYADSVKGRFTISRDNAKNSLYLQMNSLRAEDTAVYYCARDFNNGWYEDFDYWGQGTLVTVSS : condition not met
3. PR005340 (antibody, human IgG1, V domains shown, HCAb (heavy chain-only, human IgG1 Fc), no light chain) VH: EVQLVESGGGLVKPGGSLRLSCAASGFTFSDYYMSWIRQAPGKGLEWISYISSSGSTIHYADSVKGRFTISRDNAKNSLYLQMNSLRAEDTAIYYCARDIPSSSSDWVSLQFDYWGQGTLVTVSS : condition not met
4. PR005346 (antibody, human IgG1, V domains shown, HCAb (heavy chain-only, human IgG1 Fc), no light chain) VH: EVQLVESGGGLVKPGGSLRLSCAASGFTLSDYYMSWIRQAPGKGLEWVSNISKNGFTIYYAESVKGRFTVSRDNAKNSLYLQMNSLRAEDTAIYYCARDSSGWYSEFDYWGQGTLVTVSS : condition met
5. PR005342 (antibody, human IgG1, V domains shown, HCAb (heavy chain-only, human IgG1 Fc), no light chain) VH: EVQLVESGGGLVKPGGSLRLSCAASGFNFSDYYMSWIRQAPGKGLEWISYISNSSSTIYYADSVKGRFTISRDNAKNSLYLQMSRLRAEDTAMYYCARDTTNGWYEDFDYWGQGTLVTVSS : condition not met

Now take the following binder into account.
Enquiry: Check if Max falls below 30000 for PR005345 (antibody, human IgG1, V domains shown, HCAb (heavy chain-only, human IgG1 Fc), no light chain) VH: EVQLVESGGGLVKPGGSLRLSCAASGFTFSDYYMSWIRQAPGKGLEWIAYISSSGSTIHYSDSVKGRFTISRDNAKNSLYLQMNSLRAEDTAVYYCARDTPSSSSDWVSLQFDYWGQGTPVTVSS .
Return: condition met
